Assay: soluble on expression in E. coli; label from the status in PepcDB or PDB records
test.readout: soluble on expression in E. coli

Solved entries:
sequence.content: MHHHHHHSSGVDLGTENLYFQSMEKTELIQKAKLAEQAERYDDMATCMKAVTEQGAELSNEERNLLSVAYKNVVGGRRSAWRVISSIEQKTDTSDKKLQLIKDYREKVESELRSICTTVLELLDKYLIANATNPESKVFYLKMKGDYFRYLAEVACGDDRKQTIDNSQGAYQEAFDISKKEMQPTHPIRLGLALNFSVFYYEILNNPELACTLAKTAFDEAIAELDTLNEDSYKDSTLIMQLLRDNLTLWTSDSAG
test.readout: soluble on expression in E. coli
result: soluble
//
sequence.content: MGSDKIHHHHHHLCLIKPGLKVLEIGCGTGRVLKPLLESGASVVGVDISHEMLALAHNKLASFCDSGALRLLNHNFVYSSIPERFDRVFVTFYTFNYLLSYENALSFLKNIYSSMNDGAVLLMDMFFPSIYHNPAIEGKWQQRYLNLGAKQIRLSDRRTMRGPMEKREQVFEEDGGRQEITTLRRFYDKNETARLLREAGFSSVKFTDVYDSTLFHQLELLEATDRGFLVMGRREAGGGEG
test.readout: soluble on expression in E. coli
result: not soluble
//
sequence.content: MIPATLHQLKVFETTARHGSFTKAAEELSITQPTVSGQVKQLTQTIGMPLFEHIGRKLYLTEAGEELLATCQEIFERLDNFEMKLAALQGAKRGQLRLGVITTTKYFVPRILGEFCQDYPDIDVSLQVINHQQLHDRMADNLDDLYILSNLPDDLDVHAQAFLDNPLVVVARADHPLAHQKNLPLSVLDGADFVTREMGSGTRLAVEKLLAEHDVSVQVRLELGSNEAIKQAIAGGLGISVLSRHTLITEPPHGELTVLDVEHFPIQRHWYVAYLAGKQLSVIAQAFLEFMVRSSQKTLENSGRRSLALQP
test.readout: soluble on expression in E. coli
result: not soluble
//
sequence.content: MTDSKYDYSDITPVDINTEEPQICQILYDEDYKQIMGLLLALMKAEEYSERALHITELGINELASHYTIWIYRFNILKNLPNRNLYDELDWCEEIALDNEKNYQIWNYRQLIIGQIMELNNNDFDPYREFDILEAMLSSDPKNHHVWSYRKWLVDTFDLHNDAKELSFVDKVIDTDLKNNSAWSHRFFLLFSKKHLATDNTIDEELNYVKDKIVKCPQNPSTWNYLLGIHERFDRSITQLEEFSLQFVDLEKDQVTSSFALETLAKIYTQQKKYNESRTVYDLLKSKYNPIRSNFWDYQISKLTSV
test.readout: soluble on expression in E. coli
result: soluble

Go through the list and state soluble on expression in E. coli for each entry.
1. MSLDFAARQAAFADALLHPDRPVPDGVINARGEPDAARFAVYRNNVFVGLTKALAQRFPVTERLVGSEFFAAMARAYVQDHKPASPLIMEYGDDFPDFVAAFEPAGTLVYLPDVARLEAAWTEAYHAADSAPLDLAAFGAVAPEMLSDLRLLPHPSARLILSNFPVGSIWSAHQEAVVSPVSDWGGQAVLVVRPEMSVNVHVLPPRDAVFAAALFNAATLGEAAEAAFAAAPEFDFGTALVGLAGIGAFRAFQQYKGNEGHHHHHH
2. MAVIVKYVVERNGEEKMTFTSKAEADAYDKMLDMADELFELLGKSALIEDEAKQEELAMFLAQNKEDVLCALGAKRKPAPATGKKPKAVADSDDDESVDDAA
3. MGSDKIHHHHHHMKPTLFVLAAGMGSRYGSLKQLDGIGPGGDTIMDYSVYDAIRAGFGRLVFVIRHSFEKEFREKILTKYEGRIPVELVFQELDRLPEGFSCPEGREKPWGTNHAVLMGRDAIREPFAVINADDFYGRNGFEVLARKLMTLEGKQGEYCMVGYRVGNTLSESGGVSRGVCQVDEKHLLTGVVERTGIERTDGTISFRDETGKICTLAEDAPVSMNMWGFTPDYFDYSEELFINFLNAHGQEPKSEFFIPFVVNDLIRSGRASVEVLDTTARWFGVTYSDDRPGVVAKLRELTEAGEYPTKLF
4. GPGSMVRRNNKSTESTIVFTRGAGDNSLWDDADLIRLWNAQLEEDQCEKAEDEAPVPSTVSEDGSLITTEDDEVAESEQKSSLRSFQSGQREAGVASAIVTAAPINASVAPVVLHQSMFDRLPADIRQLLVAYFNAGYEAGYFVGKRDGSSKVGGKRARGE
5. GSHMRSRRVDVMDVMNRLILAMDLMNRDDALRVTGEVREYIDTVKIGYPLVLSEGMDIIAEFRKRFGCRIIAAFKVADIPETNEKICRATFKAGADAIIVHGFPGADSVRACLNVAEEMGREVFLLTEMSHPGAEMFIQGAADEIARMGVDLGVKNYVGPSTRPERLSRLREIIGQDSFLISPGVGAQGGDPGETLRFADAIIVGRSIYLADNPAAAAAGIIESIKDLRIPEDPAANKARKEAELAAATAEQ
6. MKMMDANEIISFIQNSTKSTPVKVYVKGELEGINFGESAKAFINGNTGVVFGEWSEIQTAIEENQSKIEDYVVENDRRNSAIPMLDL
7. MLIVGINGSPKKEGNTKYLINTVLEEAKSQGVETMVLEVGELLNSVKNPFCVVCSNPCSSICYKGTKLEEAYEILKKADAIVMGSPVYFGSVSAQLKAFFDKTRKLRSEKALYNKFACGVTVGGARFGGQETTMKALHDIMLVHGMTIVGDGYVGDDCGHHGVCAQQPADKDEFAIKRAKILGRRLVDVCKKAGA

1. not soluble
2. not soluble
3. not soluble
4. not soluble
5. soluble
6. not soluble
7. not soluble

If you can, please state the reported soluble on expression in E. coli value of MGHHHHHHGGHMSLITAEECRTYKEFVDLYQSYLYPLLGARLSRMYSPKNKVIIDMGTGPGYLSIQLAKRTNAHVHAVDINPAMHEIAQEEAKKSGVSSLISFDLEDVHHLSYADQYADFIVSYSCLHHWEDVVKGLKECYRVLAPGGKIVILDTFNPQGSHLEIMRKQIKEPEYFRFVREAFEESYSFEDIHQFVQDAGIPNYSLETFHFLPEDFIESLDELEDAPLWEQNDQSTDHEIESVTWMLTIEKEKEGALEGGS .
soluble

---

Assay: soluble on expression in E. coli; label from the status in PepcDB or PDB records

sequence.content: MGSDKIHHHHHHMPFENAPHLVFWEVTKACPLSCKHCRANAIDKPLPGELSTEESKKLLEDIARFGKVVIVFTGGDPLSRSDIFEIMEYAKSLGLIVSIAPSPSYRLRDETMKMISNYARYMSISIDGATSQTHDWLRGLGSYNYALRGIELGLKYGIQVQVNTLVWKKSYSELPFLVKLLKELGVKVWEVFFLIPVGRGVIELDIPKEKYKDVIDFLVETTRYDLVVRTVEAPFFRRAKLEYTPSTIKSNELVSKLRELLGEPVKDVDKSVLPTRDGSGVIFIGYNGDVYPSGFLPLYLGNVRKESIVDIYRKSEVLKIIKDGRFDGKCGVCKFNNICGGSRARAFAVYNNPFAEDPMCPY
soluble on expression in E. coli: not soluble
--
sequence.content: MENKLKLVVVGDTYTGKTSLLVAYTKKQFLDNYTTTVFDNWAVSVHIDNKNYAVNLFDTAGQGNYEQIRCLSYPHANVFLVCFSMIDRKTLESCRSTWIPEIRKYAGDNVPIMLVGTKNDLVDDADSRNTVTEDYAKRVAHEIGCHKFYSCSALTHKGLKRVFDESFLAAVGVKLEEETPNPCCTIL
soluble on expression in E. coli: not soluble
--
sequence.content: MNLRTQKFHMYFKQWIELYKEGAVRPVTYQKYQMSHKHLVTLAPDLHMDELKRRTYQELINEFAANHEKQTTLDFHHHLKAAILDALDEGILEQDPTRKVLEHHHHHH
soluble on expression in E. coli: not soluble

---

Assay: soluble on expression in E. coli; label from the status in PepcDB or PDB records
test.readout: soluble on expression in E. coli

sequence.content: MINLTNLASSLARVALSDSTKPTIDRAMNVVSHIAGKVALQVNSSLLEQKGRLNERQQKGLEVILDALLGKEPVTHVETHEGGGRFNLARAAFDVASVVWERDQSMRNVMSFLGINDSKGNLLFSLGKTLADAMARPEPENGKHNSEANYAFFSSNLKLNKLMNDIADQVINEIRQQNTDRVRRPTPGPSWRPESTQQQARPQTPPSARPQANSAPPPPKAQPDAGAQRPSTERPPKTTPTGASAKVDDSAPAKPPVKQLYEHLGLSDMTADLSAVKKAYKKAALKYHPDKNAGNVAEANERFKKISNAFRILSDPELRTKYDNGVIDENG
result: not soluble

sequence.content: MGSDKIHHHHHHSCGDKMNKNTGALEFDSIQVNETAHLFGDTAKPACNLTINFAYPVKSTDNKLKDSLNSYFIAACFGEGYIGEKPAQVVKEYTEHYVKEYRTDLEPMYAEDEKNKESEGSIGAWYSYYKGIESHVQLYYKNLLVYRINYNEYTGGAHGIYMTTFLNMDLINLRPLKLDDIFTGDYKEALTDLLWNQLMADKKVTTHEALEDMGYGSTGDIAPTENFYLDKDGITFYYNVYDITPYAMGPVEIKIPYEMMEHMLGSNPIIGEMKSK
result: not soluble

sequence.content: MAGRKEEELKDLTLLGNQGTTYSFTYNPNLLEVFDNKHPDRDYFVKFNCPEFTTLCPKTGQPDFATIYITYIPDKKCVESKSLKLYLFSFRNHGDFHEDCVNIIMNDLIKVMEPRYIEVWGKFTPRGGISIDPYCNWGRPGTKYEKMAEYRLLNHDLYPEKVDNR
result: not soluble

sequence.content: MNDFSLELPVRTNKPRETGQSILIDNGYPLQFFKDAIAGASDYIDFVKFGWGTSLLTKDLEEKISTLKEHDITFFFGGTLFEKYVSQKKVNEFHRYCTYFGCEYIEISNGTLPMTNKEKAAYIADFSDEFLVLSEVGSKDAELASRQSSEEWLEYIVEDMEAGAEKVITEARESGTGGICSSSGDVRFQIVDDIISSDIDINRLIFEAPNKTLQQGFIQKIGPNVNLANIPFHDAIALETLRLGLRSDTFFL
result: soluble

sequence.content: GMIQVPASFDIQGHRGCRGLLPENTIAAFTKALLLGVTTLEFDLVISKDNRVVVSHDTFFHHEITMMVDGEDVTEANEKNFNLYAMNYADIKEIDVGMKTHPRFKSQKKVPAVKPLFRELIETAEKLSAKIQYNGEIKSTVEGDNIDHPNIALFCDLVVAEIKKAHITDRFTLQSFDVRALEYMHSQYPDIKLSYLVETKGTLKKQLEKLSFTPAVYSPDVTLVSKKDIDAAHKLGMRVIPWTVNTKEEIETLISLGVDGIITDYPDLFFEK
result: soluble

Field: next sequence
Data request, read-out soluble on expression in E. coli, for MSLRPQAPMTQTPMAQASTSTTTPQKIVLYMATTTSVKDTGLLDVLIPDFEKWAASRGYNIEVRYTAVGTGQALAMAARGDVDVVIVHAPSLEKQYLENGTLKCRDVIAYNFFIIVGPRDDPAGAKSLTATEAFRRIAEAKAPFVSRGDRSGTHLMELSLWRRAIGREPDPKNDTWYISAGAGMGQTLLLANEKSAYTLSDTGTWLRYRDKLPQLDVIVQAAPDLINIYSFSIVKLSNATRLMAQYMKTRGLEVIGNLTINGVSLFTPINKADPKAMEWIKTAIFGPSCVEREGHHHHHH
soluble
